Source listed as patent US20140005163A1.

Quick reference: solubility of the listed items.
# assay-comment: Solubility in the organic solvents PEG400, propyleneglycol and ethanol
# Assay type: physicochemical
# protocol-conditions: absolute ethanol, organic solvent or mixture; excipient Ethanol abs.

In the examples that follow, each entry is paired with its recorded solubility.
| smiles-data | solubility |
| --- | --- |
| Cc1nn(C(C)C)cc1-n1c(=O)n(C)c2cnc3ccc(-c4ccc(N(C)C)nc4)cc3c21 | 4.11 mg/mL |
| COCc1ncc(-c2ccc3ncc4c(c3c2)n(-c2cn(C)nc2C)c(=O)n4C)cc1OC(C)C | > 24 mg/mL |
| Cc1ncc(-c2ccc3ncc4c(c3c2)n(-c2cn(C)nc2C)c(=O)n4C)cc1OC(C)C | > 21 mg/mL |

# ---- query compound ----
The compound listed as `Cc1nn(C)cc1-n1c(=O)n(C)c2cnc3ccc(-c4cncc(OC(C)C)c4)cc3c21` shows solubility equal to > 22 mg/mL
